# METHOD: chemical genetic growth profiling, strain panel (AID 1159580);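 also: tested at 20 µM; growth read once vehicle control cultures reached saturation at 30 °C; 1 = growth at the plate median or of vehicle wells; lower values mean less growth of the strain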
# EXPERIMENTAL SETUP: S. cerevisiae deletion strains, growth OD, locus YMR231W, strain pep5, stronger effect = lower value
In all, about 5,500 compounds went through this assay and about 2,000 (36%) were called active. About 18% were inconclusive and are not listed. Some of the results follow.
RECORDED ENDPOINT: normalized growth
Form: value (number only, do not type unit).

Some solved entries appear below for comparison.
| MOLECULE | RECORDED ENDPOINT | VALUE OBSERVED |
| --- | --- | --- |
| CC(=O)OC1CCC2(O)CC1(C)CCC1C2CC1(C)C (configuration not stated) | normalized growth | 1.02 |
| CCCCCCCCCCCCCCCC(=O)OC[C@H](NC(=O)C(Cl)Cl)[C@H](O)c1ccc([N+](=O)[O-])cc1 | normalized growth | 1.03 |
| O=C(N[C@@H](CO)[C@H](O)c1ccc([N+](=O)[O-])cc1)C(Cl)Cl | normalized growth | 1.02 |

Form field normalized growth, entry CC(=O)O[C@@H]1C2CC[C@@H]3C1(C[C@@H](O)[C@@]1(O)[C@@H](C[C@H](O)C1(C)C)[C@]3(C)O)C[C@@]2(C)O (some centres not stated) : 0.993

Entry under test: Cc1cc(O)c2c(c1)C(=O)c1cccc(O)c1C2=O . Its normalized growth was 0.999

Entry CNC(C)(C)Cc1ccccc1 ; normalized growth = 1.02

The reported value for CN1CCCCC1c1ccc(-c2cccnc2)nc1 (configuration not stated) in terms of normalized growth is 0.967

// field: normalized growth; key: O=C(c1ccccc1)c1ccc2n1CCC2C(=O)O (configuration not stated) ; value = 1

// CC(=O)OC[C@@]1(O)C[C@@]23CCC4c5ccoc5CC[C@]4(C)C2CC[C@@H]1C3 (some centres not stated) : normalized growth value = 1.01

# credit: PubChem BioAssay AID1159580
